# System: porcine P-gp
# test.description: Bidirectional transport assay of enrofloxacin in MDCK-pAbcb1 cell monolayers
# Type: in vitro ADME, pig
# condition.summary: pig, MDCK-pAbcb1, MDCK-pAbcb1 cells, enrofloxacin 12 μM alone; Papp B→A / Papp A→B; read-out: Efflux ratio
property.measured: efflux ratio at 120 min, 12 μM
Answers are plain numbers.

[in] Retrieve efflux ratio at 120 min, 12 μM measured for CCN1CCN(c2cc3c(cc2F)c(=O)c(C(=O)O)cn3C2CC2)CC1 and print it.
[out] 2.58

* * *

# Tested on: porcine P-gp
# test.description: Bidirectional transport assay of enrofloxacin in MDCK-pAbcb1 cell monolayers
# Type: in vitro ADME, pig
# condition.summary: pig; MDCK-pAbcb1 cells, enrofloxacin 12 μM alone, 120 min, mean ± SEM, n = 3
property.measured: Papp A→B at 120 min, 12 μM (×10⁻⁶ cm/s)
One number for each entry, in ×10⁻⁶ cm/s.

[in] Retrieve Papp A→B at 120 min, 12 μM measured for CCN1CCN(c2cc3c(cc2F)c(=O)c(C(=O)O)cn3C2CC2)CC1 and print it.
[out] 7.78
